System: A549
ASSAY PROTOCOL: Cytotoxicity against human A549 cells assessed as reduction in cell viability after 48 hrs by MTT assay
Assay type: functional, cell-based
CONDITION: A549, 48 h
READOUT: IC50 (nM)
Supply the numeric figure in nM, leaving out any unit text.

So what does the record say about IC50 for `COc1ccc(CCCO)c2cc(CC(C)=O)oc(=O)c12` ?
2800

So what does the record say about IC50 for `CC(=O)Cc1cc2c(CCCO)cc(O)cc2c(=O)o1` ?
2800

----------
ASSAY PROTOCOL: Therapeutic ratio of LC50 to EC50 for Balanus amphitritea
Assay type: ADME
CONDITION: amphibalanus amphitrite; read-out: TI
Give measured selectivity ratio for each item. Keep answers brief.

So what does the record say about selectivity ratio for `CCCCC[C@H]1OC(=O)c2c(O)c(CC=C(C)C)cc(O)c2[C@H]1OC` ?
> 15

So what does the record say about selectivity ratio for `C/C=C/CC[C@H]1OC(=O)c2c(O)c(CC=C(C)C)cc(O)c2[C@H]1OC` ?
> 15

----------
READOUT: IC50

Which measured IC50 belongs to C[C@H](O)C/C=C/CCCCC1Cc2cc(O)cc(O)c2C(=O)O1 (stereo partly specified) , tested on UniProtKB P11511?
12.3 µM
